Measured values drawn from patent US20250188095A1 for this set.

Experiment: Rat pharmacokinetic parameters in rat plasma
Format: in vivo
Conditions: male SD rats, iv 1 mg/kg
Quantity Measured: Cmax (ng/mL)
// units = ng/mL; emit number, no label

Request: Find the recorded Cmax belonging to Cc1cc(C)nc(N2C[C@H]3CN(C(=O)c4c(-c5ncccc5F)cn5ccccc45)C[C@H]3C2)n1 and report it.
Result: 875

Request: Find the recorded Cmax belonging to Cc1cc(C)nc(N2C[C@H]3CN(C(=O)c4c(-c5ccccn5)nn5cc(F)ccc45)C[C@H]3C2)n1 and report it.
Result: 439

Request: Find the recorded Cmax belonging to Cc1cc(C)nc(N2C[C@H]3CN(C(=O)c4c(-c5ccncc5)nn5ccccc45)C[C@H]3C2)n1 and report it.
Result: 715
